Target: T1, recombinant human IL-22 (human, UniProt Q9GZX6 34-179)
T1 construct: also called rh-IL22
T1 sequence: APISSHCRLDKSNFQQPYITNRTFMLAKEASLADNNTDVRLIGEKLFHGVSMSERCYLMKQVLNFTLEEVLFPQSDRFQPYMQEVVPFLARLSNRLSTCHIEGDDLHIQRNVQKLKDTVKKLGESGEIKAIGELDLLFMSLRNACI
Experiment: BLI (Octet), His-tagged VHH on HIS1K tips, IL-22 in solution
quantity-name: pKd
Note: pKd values are expressed as the negative base-10 logarithm of concentration in M.

Check out these entries, answers already filled in.
binder: IL22-A3 (VHH, Llama single domain antibody with C-terminal His-tag; not shown: C-terminal His-tag) VHH: QVQLVESGGGLVQPGGSLRLSCEASGRTFSSVSMGWFRQAPGKERVIVAAADWSGTTYYTGSLKGRFTISRDNAKNMVYLQMNSLKPEDTAVYYCAASDPRRSAYKYWGQGTQVTVSS
pKd: 9.09
--
binder: Humanized IL22-223 (VHH, not shown: C-terminal His-tag) VHH: EVQLVESGGGLVQPGGSLRLSCAASGFTLNYYVMSWFRQAPGKEREGVSAISSSDGSTYYADSVKGRFTISRDNSKNTLYLQMNSLRAEDTAVYYCAADLRAYYTVPLWASEYDYWGQGTVSS
pKd: 8.97
--
binder: IL22-223 (VHH, Llama single domain antibody with C-terminal His-tag; not shown: C-terminal His-tag) VHH: QVQLVESGGGLAQPGGSLRLSCAVSGFTLNYYVIAWFRQAPGKEREGVSCISSSDGSTYYTDSVKGRFTISRDNAKNTVYLQMDSLKPEDTAVYYCAADLRAYYTVPLWASEYDYWGQGTQVTVSS
pKd: 8.89

Looking for the measured pKd of IL22-354 (VHH, Llama single domain antibody with C-terminal His-tag; not shown: C-terminal His-tag) VHH: EVQLVESGGGLVQPGGSLRLSCAASGFTLDYYAIAWFRQAPGKEREGVSCISTSDGSTYYADSVKGRFTISRDNAKNTVYLQMNSLKPEDTAVYYCAADPSPFFVAPLVDYEYDYWGQGTQVTVSS , can you help?
9.44
